# tested_system: human SSAO (Homo sapiens, UniProt Q16853)
# Sequence (Q16853 29-763 limits assumed): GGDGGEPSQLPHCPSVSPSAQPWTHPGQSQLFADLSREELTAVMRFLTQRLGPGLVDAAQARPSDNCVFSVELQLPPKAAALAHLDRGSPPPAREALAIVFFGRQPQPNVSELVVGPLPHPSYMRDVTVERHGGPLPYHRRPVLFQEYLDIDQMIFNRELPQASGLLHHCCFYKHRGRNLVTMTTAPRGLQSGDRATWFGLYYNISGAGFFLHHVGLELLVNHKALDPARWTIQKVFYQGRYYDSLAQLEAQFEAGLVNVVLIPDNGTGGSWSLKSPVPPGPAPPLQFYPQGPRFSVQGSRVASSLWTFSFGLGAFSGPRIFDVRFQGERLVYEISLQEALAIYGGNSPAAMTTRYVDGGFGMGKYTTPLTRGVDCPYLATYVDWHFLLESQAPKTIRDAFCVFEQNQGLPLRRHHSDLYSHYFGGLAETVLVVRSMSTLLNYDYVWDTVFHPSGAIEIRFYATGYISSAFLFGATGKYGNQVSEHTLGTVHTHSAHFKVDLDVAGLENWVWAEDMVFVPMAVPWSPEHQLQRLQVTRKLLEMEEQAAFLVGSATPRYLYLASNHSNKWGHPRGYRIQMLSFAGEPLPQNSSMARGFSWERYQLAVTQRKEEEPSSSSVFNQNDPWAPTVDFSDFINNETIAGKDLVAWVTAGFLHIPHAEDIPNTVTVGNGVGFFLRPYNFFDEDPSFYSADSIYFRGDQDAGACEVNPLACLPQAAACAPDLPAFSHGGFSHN
# assay: SSAO enzyme inhibition assay (benzylamine substrate; HRP-coupled hydrogen peroxide detection or 14C-benzaldehyde detection)
# condition_details: purified recombinantly expressed human SSAO, benzylamine as substrate, r.t.; read-out: SSAO inhibitory activity IC50
pIC50: −log10 of the molar value. Counter-ions that a name gives are not always drawn.
As shown below, each of these molecules has a reported pIC50 value.

Request: Quote pIC50 reported for FC1(F)CCN(c2nn(-c3ccc(Cl)cc3)c3cnccc23)C1 please.
Result: 6.30 to 7.00

Request: Note pIC50 for the molecule shown: CC1CN(c2nn(-c3ccc(Cl)cc3)c3cnccc23)CCO1 (stereo not shown)
Result: > 7.00

Request: Give the reported pIC50 for this molecule. Clc1ccc(-n2nc(N3CCCCC3)c3ccncc32)cc1
Result: 5.60 to 6.30

Request: Report pIC50 for N#CCCCN1CCC(c2cn(-c3ccc(Cl)cc3)c3cnccc23)CC1 [Compound 22, hydrochloride]
Result: 6.30 to 7.00

***
Request: Look up pIC50 of Clc1ccc(-n2cc(C3CCOCC3)c3ccncc32)nc1 and report it.
Result: 6.30 to 7.00

Request: Give pIC50 for the following molecule: OCCNCc1cn(-c2ccc(Cl)cc2)c2cnccc12
Result: 5.60 to 6.30

Request: For the molecule Cc1ccc(-n2nc(C3CCOC3)c3ccncc32)cc1 (stereo not shown) , give its measured pIC50 value.
Result: 6.30 to 7.00
